# System: P388 mouse leukemia cells
# CONDITION: 92 h
Where a SMILES comes first, the peptide text is derived from it. [ ]: non-standard residue; d: D form. The star is where a group is joined. NHCH2CH2OH = OCCN*; For = O=C*
MEASUREMENT_NAME: cell viability/% (%)
Answers are plain numbers, in %.

Some compounds with recorded cell viability/%:
>  <COMPOUND>
CNC(=O)C[C@@H](NC(=O)[C@@H](NC(=O)[C@@H](CC(C)C)NC(=O)[C@H](C)NC(=O)[C@@H](CC(C)C)NC(=O)[C@H](C)NC(=O)CNC(=O)[C@@H](NC=O)C(C)C)C(C)C)C(=O)N[C@@H](Cc1c[nH]c2ccccc12)C(=O)N[C@H](CC(C)C)C(=O)N[C@@H](Cc1c[nH]c2ccccc12)C(=O)N[C@H](CC(C)C)C(=O)N[C@@H](Cc1c[nH]c2ccccc12)C(=O)N[C@H](CC(C)C)C(=O)N[C@@H](Cc1c[nH]c2ccccc12)C(=O)NCCO [compound 1400] (For-VGA[dL]A[dL]V[dD](NHMe)W[dL]W[dL]W[dL]W-NHCH2CH2OH)

>  <MEASUREMENT_NAME>
cell viability/%

>  <QUANTITATIVE_RESULT>
72.7

$$$$
>  <COMPOUND>
CNC(=O)C[C@@H](NC(=O)[C@@H](NC(=O)[C@@H](CC(C)C)NC(=O)[C@H](C)NC(=O)[C@H](NC(=O)[C@H](C)NC(=O)CNC(=O)[C@@H](NC=O)C(C)C)C(C)C)C(C)C)C(=O)N[C@@H](Cc1c[nH]c2ccccc12)C(=O)N[C@H](CC(C)C)C(=O)N[C@@H](Cc1c[nH]c2ccccc12)C(=O)N[C@@H](C(=O)N[C@@H](Cc1c[nH]c2ccccc12)C(=O)N[C@@H](C(=O)N[C@@H](Cc1c[nH]c2ccccc12)C(=O)NCCO)C(C)C)C(C)C [compound 6822] (For-VGA[dV]A[dL]V[dD](NHMe)W[dL]W[dV]W[dV]W-NHCH2CH2OH)

>  <MEASUREMENT_NAME>
cell viability/%

>  <QUANTITATIVE_RESULT>
100.0

$$$$
>  <COMPOUND>
CC(C)C[C@@H](NC(=O)[C@H](C)NC(=O)[C@H](NC(=O)[C@H](C)NC(=O)CNC(=O)[C@@H](NC=O)C(C)C)C(C)C)C(=O)N[C@H](C(=O)N[C@@H](C(=O)N[C@@H](Cc1c[nH]c2ccccc12)C(=O)N[C@@H](C(=O)N[C@@H](Cc1c[nH]c2ccccc12)C(=O)N[C@H](CC(C)C)C(=O)N[C@@H](Cc1c[nH]c2ccccc12)C(=O)N[C@@H](C(=O)N[C@@H](Cc1c[nH]c2ccccc12)C(=O)NCCO)[C@H](C)O)C(C)C)C(C)C)C(C)C [compound 12285] (For-VGA[dV]A[dL]V[dV]W[dV]W[dL]W[dT]W-NHCH2CH2OH)

>  <MEASUREMENT_NAME>
cell viability/%

>  <QUANTITATIVE_RESULT>
100.0

$$$$

Consider the following items and state reported cell viability/% for each.
1. CC(C)C[C@@H](NC(=O)[C@H](C)NC(=O)CNC(=O)[C@@H](NC=O)C(C)C)C(=O)N[C@@H](C)C(=O)N[C@@H](C(=O)N[C@H](C(=O)N[C@H](CC(C)C)C(=O)N[C@@H](Cc1c[nH]c2ccccc12)C(=O)N[C@@H](C(=O)N[C@@H](Cc1c[nH]c2ccccc12)C(=O)N[C@@H](C(=O)N[C@@H](Cc1c[nH]c2ccccc12)C(=O)N[C@@H](C(=O)N[C@@H](Cc1c[nH]c2ccccc12)C(=O)NCCO)C(C)C)C(C)C)C(C)C)C(C)C)C(C)C [compound 7938] (For-VGA[dL]A[dV]V[dL]W[dV]W[dV]W[dV]W-NHCH2CH2OH)
2. CC(C)C[C@@H](NC(=O)[C@H](C)NC(=O)CNC(=O)[C@@H](NC=O)C(C)C)C(=O)N[C@@H](C)C(=O)N[C@@H](C(=O)N[C@H](C(=O)N[C@@H](C(=O)N[C@@H](Cc1c[nH]c2ccccc12)C(=O)N[C@H](CC(C)C)C(=O)N[C@@H](Cc1c[nH]c2ccccc12)C(=O)N[C@H](CC(C)C)C(=O)N[C@@H](Cc1c[nH]c2ccccc12)C(=O)N[C@H](CC(C)C)C(=O)N[C@@H](Cc1c[nH]c2ccccc12)C(=O)NCCO)C(C)C)C(C)C)C(C)C [compound 12972] (For-VGA[dL]A[dV]V[dV]W[dL]W[dL]W[dL]W-NHCH2CH2OH)
3. CNC(=O)C[C@@H](NC(=O)[C@@H](NC(=O)[C@H](NC(=O)[C@H](C)NC(=O)[C@H](NC(=O)[C@H](C)NC(=O)CNC(=O)[C@@H](NC=O)C(C)C)C(C)C)C(C)C)C(C)C)C(=O)N[C@@H](Cc1c[nH]c2ccccc12)C(=O)N[C@H](CC(C)C)C(=O)N[C@@H](Cc1c[nH]c2ccccc12)C(=O)N[C@H](CC(C)C)C(=O)N[C@@H](Cc1c[nH]c2ccccc12)C(=O)N[C@H](CC(C)C)C(=O)N[C@@H](Cc1c[nH]c2ccccc12)C(=O)NCCO [compound 6862] (For-VGA[dV]A[dV]V[dD](NHMe)W[dL]W[dL]W[dL]W-NHCH2CH2OH)
4. CC(C)C[C@@H](NC(=O)[C@H](Cc1c[nH]c2ccccc12)NC(=O)[C@H](NC(=O)[C@H](Cc1c[nH]c2ccccc12)NC(=O)[C@H](NC(=O)[C@H](Cc1c[nH]c2ccccc12)NC(=O)[C@@H](CC(C)C)NC(=O)[C@@H](NC(=O)[C@H](NC(=O)[C@H](C)NC(=O)[C@H](NC(=O)[C@H](C)NC(=O)CNC(=O)[C@@H](NC=O)C(C)C)[C@H](C)O)C(C)C)C(C)C)C(C)C)C(C)C)C(=O)N[C@@H](Cc1c[nH]c2ccccc12)C(=O)NCCO [compound 10500] (For-VGA[dT]A[dV]V[dL]W[dV]W[dV]W[dL]W-NHCH2CH2OH)
5. CC(C)C[C@@H](NC(=O)[C@H](C)NC(=O)[C@H](NC(=O)[C@H](C)NC(=O)CNC(=O)[C@@H](NC=O)C(C)C)C(C)C)C(=O)N[C@H](C(=O)N[C@H](CC(C)C)C(=O)N[C@@H](Cc1c[nH]c2ccccc12)C(=O)N[C@@H](C(=O)N[C@@H](Cc1c[nH]c2ccccc12)C(=O)N[C@H](CC(C)C)C(=O)N[C@@H](Cc1c[nH]c2ccccc12)C(=O)N[C@@H](C(=O)N[C@@H](Cc1c[nH]c2ccccc12)C(=O)NCCO)C(C)C)[C@H](C)O)C(C)C [compound 4232] (For-VGA[dV]A[dL]V[dL]W[dT]W[dL]W[dV]W-NHCH2CH2OH)

[17.4, 0.0, 100.0, 100.0, 93.0]
